Reference source: BigSolDB 2.1

CONDITIONS: in 2-ethoxyethanol, 318.16 K
ASSAY_METRIC: solubility (mole fraction)
// no unit string in output, number only

Suppose we examine the molecule O=P1(Oc2ccccc2)OCC2(CO1)COP(=O)(Oc1ccccc1)OC2 (stereo unspecified) ; what solubility (mole fraction) value has been reported?
0.00756

###

CONDITIONS: in acetone, 323.16 K
Kindly supply the reported solubility (mole fraction) values for the records listed here.

Suppose we examine the molecule `O=P(O)(CO)c1ccccc1` ; what solubility (mole fraction) value has been reported?
0.0035

Suppose we examine the molecule `O=C(O)CCP(=O)(O)c1ccccc1` ; what solubility (mole fraction) value has been reported?
0.00305

###

Kindly supply the reported solubility (mole fraction) values for the records listed here.
CONDITIONS: in diethyl ether, 301.16 K
// no unit string in output, number only

Suppose we examine the compound `COc1ccc(P(=O)(c2ccc(OC)cc2)c2ccc(OC)cc2)cc1` ; what solubility (mole fraction) value has been reported?
0.0106

Suppose we examine the compound `COc1ccc(P(c2ccc(OC)cc2)c2ccc(OC)cc2)cc1` ; what solubility (mole fraction) value has been reported?
0.0101

###

CONDITIONS: in 1,4-dioxane, 333.17 K
ASSAY_METRIC: solubility (mole fraction)
// no unit string in output, number only

Suppose we examine the compound O=P1(O)OCC2(CO1)COP(=O)(O)OC2 (stereo unspecified) ; what solubility (mole fraction) value has been reported?
0.0006

###

CONDITIONS: in ethanol, 303.75 K
ASSAY_METRIC: solubility (mole fraction)
// no unit string in output, number only

Suppose we examine the molecule `COc1ccc(P(=O)(c2ccc(OC)cc2)c2ccc(OC)cc2)cc1` ; what solubility (mole fraction) value has been reported?
0.00049

###

CONDITIONS: in cyclohexane, 304.05 K
ASSAY_METRIC: solubility (mole fraction)

Suppose we examine the molecule `COc1ccc(P(=O)(c2ccc(OC)cc2)c2ccc(OC)cc2)cc1` ; what solubility (mole fraction) value has been reported?
0.00082

Suppose we examine the molecule `COc1ccc(P(c2ccc(OC)cc2)c2ccc(OC)cc2)cc1` ; what solubility (mole fraction) value has been reported?
0.00082

###

CONDITIONS: in chloroform, 323.04 K
ASSAY_METRIC: solubility (mole fraction)
// no unit string in output, number only

Suppose we examine the compound O=P1(Oc2ccccc2)OCC2(CO1)COP(=O)(Oc1ccccc1)OC2 (stereo unspecified) ; what solubility (mole fraction) value has been reported?
0.0139

###

CONDITIONS: in toluene, 308.14 K
Kindly supply the reported solubility (mole fraction) values for the records listed here.
// no unit string in output, number only

Suppose we examine the compound `O=P(O)(CO)c1ccccc1` ; what solubility (mole fraction) value has been reported?
0.0018

Suppose we examine the compound `O=C(O)CCP(=O)(O)c1ccccc1` ; what solubility (mole fraction) value has been reported?
0.00079

Suppose we examine the compound `COc1ccc(P(c2ccc(OC)cc2)c2ccc(OC)cc2)cc1` ; what solubility (mole fraction) value has been reported?
0.00061

Suppose we examine the compound `COc1ccc(P(=O)(c2ccc(OC)cc2)c2ccc(OC)cc2)cc1` ; what solubility (mole fraction) value has been reported?
0.00066

###

CONDITIONS: in ethyl acetate, 328.16 K
ASSAY_METRIC: solubility (mole fraction)
// no unit string in output, number only

Suppose we examine the compound `O=C(O)CCP(=O)(O)c1ccccc1` ; what solubility (mole fraction) value has been reported?
0.00281

Suppose we examine the compound O=P1(O)OCC2(CO1)COP(=O)(O)OC2 (configuration not stated) ; what solubility (mole fraction) value has been reported?
0.00229
